Test system: Fibroblast
Procedure Summary: Multiplex assay against human fibroblast
Format: toxicity, cell-based
Condition Label: 24 h, 1 µM, compound concentration 1 uM, replicate 1
Reported Population Pyknosed Nuclei (%) values are given for each entry in this list.

Solved entries (count: 6):
> print(dat)
                                   compound  recorded.result
1  C[C@@H](NCCCc1cccc(C(F)(F)F)c1)c1cccc2ccccc12.Cl [CINACALCET HYDROCHLORIDE]              24%
2  CC(C)(O)CNc1ncc(-c2ccnc(Nc3ccnc(Cl)c3)n2)c(CC2CC2)n1              12%
3  Cn1cc(-c2[nH]c3cc(NC(=O)[C@H](N)C4CCCCC4)cc4c3c2C=NNC4=O)cn1              28%
4  CN(C)C(=O)N[C@H]1CC[C@H](CCN2CCN(c3cccc(Cl)c3Cl)CC2)CC1.Cl [CARIPRAZINE HYDROCHLORIDE]              29%
5  CC[C@H](C)C(=O)O[C@H]1C[C@@H](C)C=C2C=C[C@H](C)[C@H](CC[C@@H]3C[C@@H](O)CC(=O)O3)[C@H]21              16%
6  Cc1[nH]c(/C=C2\C(=O)Nc3ccc(S(=O)(=O)N(C)c4cccc(Cl)c4)cc32)c(C)c1C(=O)N1CCN(C)CC1              20%

Item CN1CCCC(n2nc(Cc3ccc(Cl)cc3)c3ccccc3c2=O)CC1.Cl (configuration not stated) [AZELASTINE HYDROCHLORIDE] has what recorded Population Pyknosed Nuclei (%)? 25%

----------
Catalogue of Population Pyknosed Nuclei (%) readings, one per entry.
Tested on: U2OS
Procedure Summary: Multiplex assay against U2OS
Format: toxicity, cell-based
Condition Label: human, 48 h, 10 µM, compound concentration 10 uM, replicate 1
Number in %, nothing else.

> print(dat)
                                   compound  recorded.result
1  CCOCCn1cc(C(=O)Nc2ccc(-n3nc(-c4cccnc4)cc3C(F)(F)F)cn2)ccc1=O [BI 1935]               19
2  Cc1nc(-c2ccc(-c3ccc(C(=O)N4CCc5cc6c(cc54)C4(CCN(C)CC4)CO6)cc3)c(C)c2)no1 [SB-224289]               44
3  NC(=O)Nc1cc(-c2cccc(F)c2)sc1C(=O)N[C@H]1CCCNC1 [AZD-7762]               59

API: the following record is the query input.
Reported Population Pyknosed Nuclei (%), compound `COc1cc2nccc(Oc3ccc(NC(=O)Nc4cc(C)on4)c(Cl)c3)c2cc1OC.O` : ____ 42

----------
Tested on: HEK-293T
Procedure Summary: Multiplex assay against HEK293T
Type: toxicity, cell-based
Condition Label: human, 24 h, 10 µM, compound concentration 10 uM, replicate 2
Property: Population Hoechst High Intensity Objects (%)
The reply should contain only the number, in %.

// below: answered compounds
> print(dat)
                                   compound  recorded.result
1  CN1CCN(c2ccc(OC(F)(F)F)c(Nc3ncc4c(n3)-c3c(c(C(N)=O)nn3CCO)CC4)c2)CC1 [ONVANSERTIB]                4
2  Cc1nc(-c2ccc(-c3ccc(C(=O)N4CCc5cc6c(cc54)C4(CCN(C)CC4)CO6)cc3)c(C)c2)no1 [SB-224289]               12
3  CCN(CC)CCCCNc1ncc2cc(-c3cc(OC)cc(OC)c3)c(NC(=O)NC(C)(C)C)nc2n1 [PD-173074]               27
4  CN(C)CC#Cc1ccc(OCCCc2sc(N3CCc4cccc(C(=O)Nc5nc6ccccc6s5)c4C3)nc2C(=O)O)c(F)c1 [A-1155463]                3
5  C[C@@H](NCCCc1cccc(C(F)(F)F)c1)c1cccc2ccccc12.Cl [CINACALCET HYDROCHLORIDE]                8
6  OC1(c2ccc(Cl)cc2)CCN(Cc2c[nH]c3ccccc23)CC1                8
7  Cc1csc2c(N[C@@H](C)CN3CCN(S(=O)(=O)c4ccc(Cl)c(Cl)c4)CC3)ncnc12                9

Sample O=C1NCN(c2ccccc2)C12CCN(CCCOc1ccc(F)cc1)CC2 [SPIRAMIDE] — what was its Population Hoechst High Intensity Objects (%)? 1

----------
The molecules listed here are annotated with their Population Healthy Nuclei (%).
Test system: U2OS
Procedure Summary: Multiplex assay against U2OS
Assay type: toxicity, cell-based
Condition Label: human, 12 h, 1 µM, compound concentration 1 uM, replicate 1
The answer is to be given in %; state only the numeric part.

// known answers, use as guide
> print(dat)
                                   molecule  target.desc                       property  unit.spec  recorded.result
1  CNc1nc(NCc2ccc(NS(C)(=O)=O)cc2Cl)cc(-c2ccccn2)n1         U2OS  Population Healthy Nuclei (%)          %               70
2  C[C@@]1(C(=O)Nc2ccc(F)nc2)CCCN1c1nc(Nc2cc(C3CC3)n[nH]2)c2cccn2n1         U2OS  Population Healthy Nuclei (%)          %               75
3  Cc1nc(-c2cn3c(n2)-c2ccc(-c4cnn(C(C)(C)C(N)=O)c4)cc2OCC3)n(C(C)C)n1         U2OS  Population Healthy Nuclei (%)          %               84
4  Cc1csc2c(N[C@@H](C)CN3CCN(S(=O)(=O)c4ccc(Cl)c(Cl)c4)CC3)ncnc12         U2OS  Population Healthy Nuclei (%)          %               66
5  CN(C)C(=O)N[C@H]1CC[C@H](CCN2CCN(c3cccc(Cl)c3Cl)CC2)CC1.Cl [CARIPRAZINE HYDROCHLORIDE]         U2OS  Population Healthy Nuclei (%)          %               79

Quick one: Population Healthy Nuclei (%) for `Cc1nc(-c2ccc(-c3ccc(C(=O)N4CCc5cc6c(cc54)C4(CCN(C)CC4)CO6)cc3)c(C)c2)no1` ? 74

Also `CC[C@H](C)C(=O)O[C@H]1C[C@@H](C)C=C2C=C[C@H](C)[C@H](CC[C@@H]3C[C@@H](O)CC(=O)O3)[C@H]21` , if possible. 76

C=CC(=O)Nc1cc2c(Nc3ccc(F)c(Cl)c3)ncnc2cc1OCCCN1CCOCC1.Cl.Cl [CANERTINIB DIHYDROCHLORIDE] , same question. 0

Again, but for `CN(C)CC#Cc1ccc(OCCCc2sc(N3CCc4cccc(C(=O)Nc5nc6ccccc6s5)c4C3)nc2C(=O)O)c(F)c1` 65

----------
Test system: U2OS
Procedure Summary: Multiplex assay against U2OS
Assay type: toxicity, cell-based
Condition Label: human, 12 h, 1 µM, compound concentration 1 uM, replicate 1
Property: Population Apoptotic (%)
Number in %, nothing else.

> print(dat)
                                   compound  recorded.result
1  CCN(CC)CCCCNc1ncc2cc(-c3cc(OC)cc(OC)c3)c(NC(=O)NC(C)(C)C)nc2n1 [PD-173074]               53
2  CN(C)CC#Cc1ccc(OCCCc2sc(N3CCc4cccc(C(=O)Nc5nc6ccccc6s5)c4C3)nc2C(=O)O)c(F)c1 [A-1155463]               63
3  C[C@@]1(C(=O)Nc2ccc(F)nc2)CCCN1c1nc(Nc2cc(C3CC3)n[nH]2)c2cccn2n1 [BMS-754807]               25
4  c1cn2cc(-c3ccc4cn[nH]c4c3)nc(Nc3ccc(N4CCOCC4)cc3)c2n1 [ENTOSPLETINIB]               32
5  CC(C)NCC(O)COc1ccc(CCOCC2CC2)cc1.Cl (stereo unspecified) [BETAXOLOL HYDROCHLORIDE]               60

Notebook entry, U2OS assay: Population Apoptotic (%) of COc1cccc([C@@H](C)NCCCc2ccccc2Cl)c1.Cl [TECALCET HYDROCHLORIDE] = ? 50

Entry to check: `CC(C)(O)CNc1ncc(-c2ccnc(Nc3ccnc(Cl)c3)n2)c(CC2CC2)n1` 44

Follow-up item: CC[C@H](C)C(=O)O[C@H]1C[C@@H](C)C=C2C=C[C@H](C)[C@H](CC[C@@H]3C[C@@H](O)CC(=O)O3)[C@H]21 [LOVASTATIN] 21

Record: CN1CCC[C@@H]1CCO[C@](C)(c1ccccc1)c1ccc(Cl)cc1.O=C(O)/C=C/C(=O)O [CLEMASTINE FUMARATE] 50

Thanks! And CN1CCCC(n2nc(Cc3ccc(Cl)cc3)c3ccccc3c2=O)CC1.Cl (stereo unspecified) [AZELASTINE HYDROCHLORIDE] ? 42

// repeat for Cc1nc(-c2ccc(-c3ccc(C(=O)N4CCc5cc6c(cc54)C4(CCN(C)CC4)CO6)cc3)c(C)c2)no1 [SB-224289] and report 50

Would you mind doing O=C1NCN(c2ccccc2)C12CCN(CCCOc1ccc(F)cc1)CC2 [SPIRAMIDE] as well? 22

Queued: `Cc1csc2c(N[C@@H](C)CN3CCN(S(=O)(=O)c4ccc(Cl)c(Cl)c4)CC3)ncnc12` 70

Moving on to the next compound: NC(=O)Nc1cc(-c2cccc(F)c2)sc1C(=O)N[C@H]1CCCNC1 [AZD-7762] 25

Request: `COc1cc(-n2cnc3cc(-c4ccc(Cl)cc4)sc3c2=O)ccc1OCCN1CCCC1` 45

Quick one: `Cc1[nH]c(/C=C2\C(=O)Nc3ccc(S(=O)(=O)N(C)c4cccc(Cl)c4)cc32)c(C)c1C(=O)N1CCN(C)CC1` 66
